System Under Test: LATS2 (Homo sapiens, UniProt Q9NRM7)
Sequence (Q9NRM7 1-1088): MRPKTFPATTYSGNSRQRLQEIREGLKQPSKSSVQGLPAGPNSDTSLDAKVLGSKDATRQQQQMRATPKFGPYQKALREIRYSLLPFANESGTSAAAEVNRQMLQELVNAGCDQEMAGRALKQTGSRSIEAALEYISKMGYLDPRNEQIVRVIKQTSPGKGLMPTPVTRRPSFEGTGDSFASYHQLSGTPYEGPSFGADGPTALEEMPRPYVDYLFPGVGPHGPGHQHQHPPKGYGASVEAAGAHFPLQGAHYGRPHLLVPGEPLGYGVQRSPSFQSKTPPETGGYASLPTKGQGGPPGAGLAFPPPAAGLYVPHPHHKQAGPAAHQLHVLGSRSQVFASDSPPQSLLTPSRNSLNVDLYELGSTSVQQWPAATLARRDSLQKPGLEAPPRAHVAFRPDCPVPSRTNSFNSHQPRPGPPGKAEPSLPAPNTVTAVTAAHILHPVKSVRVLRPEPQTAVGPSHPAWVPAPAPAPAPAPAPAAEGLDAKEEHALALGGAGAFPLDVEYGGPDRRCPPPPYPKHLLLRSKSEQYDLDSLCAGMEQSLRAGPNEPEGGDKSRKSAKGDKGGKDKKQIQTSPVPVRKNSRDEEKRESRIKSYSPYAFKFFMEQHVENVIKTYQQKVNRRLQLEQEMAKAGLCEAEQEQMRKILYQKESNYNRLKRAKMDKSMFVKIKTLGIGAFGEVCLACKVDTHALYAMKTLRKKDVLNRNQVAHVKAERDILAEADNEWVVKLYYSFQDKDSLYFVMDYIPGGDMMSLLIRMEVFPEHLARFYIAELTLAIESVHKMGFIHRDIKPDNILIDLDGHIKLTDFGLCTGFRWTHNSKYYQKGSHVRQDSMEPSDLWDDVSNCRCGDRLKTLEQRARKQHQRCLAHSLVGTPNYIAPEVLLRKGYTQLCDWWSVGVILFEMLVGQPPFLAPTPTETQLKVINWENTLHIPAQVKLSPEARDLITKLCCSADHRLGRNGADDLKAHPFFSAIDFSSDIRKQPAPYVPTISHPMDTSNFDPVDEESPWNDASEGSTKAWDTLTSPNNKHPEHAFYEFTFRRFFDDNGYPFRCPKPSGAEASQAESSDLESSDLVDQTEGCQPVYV
Procedure Summary: RBC HotSpot kinase assay (33P-ATP, P81 filter-binding), LATS2
Type: biochemical
Conditions Used: biochemical kinase inhibition; read-out: LATS2 IC50
Please go through the items and note down their IC50.
Please state the figure in nM; there is no need to write the unit.

Would you mind telling me what IC50 value was observed for `CN[C@@H](CO)C(=O)N1C[C@@H](C)[C@](O)(c2c(C)cc(-c3ccnc4[nH]cc(C#N)c34)cc2F)[C@@H](C)C1` ? 2.5

Now this one: `Cc1cc(-c2ccnc3[nH]cc(C#N)c23)cc(F)c1[C@@]1(O)[C@H](C)CN(C(=O)[C@](C)(N)CO)C[C@@H]1C` 5.5

What about this compound? `Cc1cc(-c2ccnc3[nH]cc(C#N)c23)cc(F)c1[C@@]1(O)[C@H](C)CNC[C@@H]1C` 4.2

Ok, now `Cc1cc(-c2ccnc3[nH]cc(C#N)c23)cc(F)c1[C@@]1(O)[C@H](C)CN(C(=O)CN)C[C@@H]1C` 2

Data provenance: patent US20250361230A1
